Biological target: MBP-fused second PDZ domain of MAGI1 (human, UniProt Q96QZ7 472-554)
Sequence (Q96QZ7 472-554): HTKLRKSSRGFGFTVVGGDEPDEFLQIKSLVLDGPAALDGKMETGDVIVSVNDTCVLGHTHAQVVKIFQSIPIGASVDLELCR
Experiment: SPR
Where no end group is shown, it is not given here.
Measurement Name: Kd
Reply with a number, then the unit it belongs to.

Just so you know, measured Kd for RSSRTRRETQL (not fully specified (N-terminus); also: biotinylated, position not given here) [biotinylated HPV16 E6 peptide] came out at 3.4 µM
